- TEST TARGET: cloned human CRF-R1 receptors (Homo sapiens, UniProt P34998)
- Sequence (P34998 24-415): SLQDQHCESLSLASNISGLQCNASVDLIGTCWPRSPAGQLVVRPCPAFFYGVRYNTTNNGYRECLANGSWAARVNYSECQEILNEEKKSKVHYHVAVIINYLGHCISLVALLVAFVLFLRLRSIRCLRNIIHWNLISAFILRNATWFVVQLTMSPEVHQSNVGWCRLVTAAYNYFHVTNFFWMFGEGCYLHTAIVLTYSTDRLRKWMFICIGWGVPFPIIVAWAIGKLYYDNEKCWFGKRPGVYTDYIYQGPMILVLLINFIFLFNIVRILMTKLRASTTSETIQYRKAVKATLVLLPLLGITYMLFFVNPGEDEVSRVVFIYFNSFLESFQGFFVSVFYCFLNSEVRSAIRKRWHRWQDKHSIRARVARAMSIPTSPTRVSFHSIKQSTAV
READOUT: Ki

>  <COMPOUND>
CCc1ccc(S(=O)(=O)c2ccc(C)nc2Nc2ccc(OC)cc2OC)cc1 [Example 68]

>  <RESULT>
0.1 to 0.5 µM

$$$$
>  <COMPOUND>
COc1cccc(COc2cccc(S(=O)(=O)c3ccc(C)nc3Nc3c(C)cc(C)cc3C)c2)c1 [Example 62]

>  <RESULT>
0.1 to 0.5 µM

$$$$
>  <COMPOUND>
Cc1cc(C)c(Nc2nc(C)ccc2S(=O)(=O)c2ccc(Br)cc2)c(C)c1 [Example 46]

>  <RESULT>
≤ 0.1 µM

$$$$
>  <COMPOUND>
Cc1cc(C)c(Nc2nc(C)ccc2S(=O)(=O)c2cccc(OCc3ccccc3)c2)c(C)c1 [Example 60]

>  <RESULT>
0.1 to 0.5 µM

$$$$
>  <COMPOUND>
Cc1cc(C)c(Nc2nc(C)ccc2S(=O)(=O)c2ccc(CO)cc2)c(C)c1 [Example 50]

>  <RESULT>
0.1 to 0.5 µM

$$$$
>  <COMPOUND>
Cc1cc(C)c(Nc2nc(C)ccc2S(=O)(=O)c2ccc(OCc3cc(Cl)nc(Cl)c3)cc2)c(C)c1 [Example 20]

>  <RESULT>
0.1 to 0.5 µM

$$$$
>  <COMPOUND>
Cc1cc(C)c(Nc2nc(C)ccc2S(=O)(=O)c2ccc(OCCCCC#N)cc2)c(C)c1 [Example 15]

>  <RESULT>
0.1 to 0.5 µM

$$$$
>  <COMPOUND>
Cc1cc(C)c(Nc2nc(C)ccc2S(=O)(=O)c2ccc(OCc3ccccc3[N+](=O)[O-])cc2)c(C)c1 [Example 29]

>  <RESULT>
≤ 0.1 µM

$$$$
>  <COMPOUND>
Cc1cc(C)c(Nc2nc(C)ccc2S(=O)(=O)c2cccc(OCc3ccc(Cl)nc3)c2)c(C)c1 [Example 64]

>  <RESULT>
0.1 to 0.5 µM

$$$$
>  <COMPOUND>
Cc1cc(C)c(Nc2nc(C)ccc2S(=O)(=O)c2ccc(OC(F)(F)F)cc2)c(C)c1 [Example 44]

>  <RESULT>
0.1 to 0.5 µM

$$$$
>  <COMPOUND>
CCc1ccc(S(=O)(=O)c2ccc(C)nc2Nc2ccc(C)cc2C)cc1 [Example 66]

>  <RESULT>
0.1 to 0.5 µM

$$$$
>  <COMPOUND>
C=CCOc1ccc(S(=O)(=O)c2ccc(C)nc2Nc2c(C)cc(C)cc2C)cc1 [Example 13]

>  <RESULT>
0.1 to 0.5 µM

$$$$
>  <COMPOUND>
Cc1cc(C)c(Nc2nc(C)ccc2S(=O)(=O)c2ccc(OCc3ccccc3)cc2)c(C)c1 [Example 11]

>  <RESULT>
≤ 0.1 µM

$$$$
>  <COMPOUND>
Cc1cc(C)c(Nc2nc(C)ccc2S(=O)(=O)c2ccc(OCCCC#N)cc2)c(C)c1 [Example 14]

>  <RESULT>
0.5 to 5 µM

$$$$
>  <COMPOUND>
CCc1ccc(S(=O)(=O)c2ccc(C)nc2Nc2cc(C)c(C)cc2C)cc1 [Example 70]

>  <RESULT>
≤ 0.1 µM

$$$$
>  <COMPOUND>
Cc1cc(C)c(Nc2nc(C)ccc2S(=O)(=O)c2ccc(OCc3ccccc3C#N)cc2)c(C)c1 [Example 28]

>  <RESULT>
≤ 0.1 µM

$$$$
>  <COMPOUND>
COc1cccc(COc2ccc(S(=O)(=O)c3ccc(C)nc3Nc3c(C)cc(C)cc3C)cc2)c1 [Example 26]

>  <RESULT>
≤ 0.1 µM

$$$$
